B1: 2M8U (parent)
chain: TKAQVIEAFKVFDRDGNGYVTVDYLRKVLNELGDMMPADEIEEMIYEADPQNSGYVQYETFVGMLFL

Variants of: B1
Test: folding stability dG (cDNA display proteolysis); higher = more stable
Conditions: PBS, room temperature
Here the recorded folding stability dG is given for each entry.
Number in kcal/mol, nothing else.

Recorded folding stability dG, per entry:
TKYQVIEAFKVFDRDGNGYVTVDYLRKVLNELGDMMPADEIEEMIYEADPQNSGYVQYETFVGMLFL [A3Y] = 2.81
TKAQVIEAFKVFDRDGNGYVTVDYLRKVLNELGDMMPADEIEEMIYEADPQNLGYVQYETFVGMLFL [S53L] = 3.2
TKAQVIEAFKVFDRDGNGYVTVDYLRKVLNELGDMMPADEEEEMIYEADPQNSGYVQYETFVGMLFL [I41E] = 2.29
TKAQVIEAFKVFDRDGNGYVTVDRLRKVLNELGDMMPADEIEEMIYEADPQNSGYVQYETFVGMLFL [Y24R] = 3.94
TKAQPIEAFKVFDRDGNGYVTVDYLRKVLNELGDMMPADEIEEMIYEADPQNSGYVQYETFVGMLFL [V5P] = 1.77
TKAQVIEAFKVFDRTGNGYVTVDYLRKVLNELGDMMPADEIEEMIYEADPQNSGYVQYETFVGMLFL [D15T] = 2.97
TKAQVIEAFKVFDRDGNGYVCVDYLRKVLNELGDMMPADEIEEMIYEADPQNSGYVQYETFVGMLFL [T21C] = 3.42
TKAQTIEAFKVFDRDGNGYVTVDYLRKVLNELGDMMPADEIEEMIYEADPQNSGYVQYETFVGMLFL [V5T] = 2.49
TKAQVIEAFKVFDRDGNGYVTVDYLRKVLNEEGDMMPADEIEEMIYEADPQNSGYVQYETFVGMLFL [L32E] = 2.04
TKAQVIEAFKVFDRDGNGYVTVDYLRKVLNELGDMMPADEIEEMIYEADPQNSGYVQYETLVGMLFL [F61L] = 2.65

Summary for this variant, TKAQVIEAFKVFDRDGNGYVTVDYLRKVLNELGKMMPADEIEEMIYEADPQNSGYVQYETFVGMLFL [D34K] : folding stability dG is 3.43

Sample TKAQVIEAFKVFDRDGNGYVTVDYLRKVLNELGDMMPAYEIEEMIYEADPQNSGYVQYETFVGMLFL [D39Y] ; folding stability dG observed: 3.86

Per the records, this variant ( TKAQVIEAFKVFDRDGNGYVTVDYLRKVLNELGDMMPADEIEEMIYETDPQNSGYVQYETFVGMLFL [A48T] ) has folding stability dG equal to 3.33

In plain terms, TKAQVIEAFRVFDRDGNGYVTVDYLRKVLNELGDMMPADEIEEMIYEADPQNSGYVQYETFVGMLFL [K10R] has a documented folding stability dG of 3.46

Entry TKAQVIEAFKVFDRDGNGYVTVDYLRKVLNELGDMMPADEIEEMIYEADPQNSGYVQYETFRGMLFL [V62R] , folding stability dG reported as 1.93

So for TKAQVIEAFKVFDRDKNGYVTVDYLRKVLNELGDMMPADEIEEMIYEADPQNSGYVQYETFVGMLFL [G16K] , the logged folding stability dG turned out to be 3.04

// folding stability dG lookup, variant = TKAQVIEAFKVFDRDGNGWVTVDYLRKVLNELGDMMPADEIEEMIYEADPQNSGYVQYETFVGMLFL [Y19W] , result: 3.21

Query TKAQVIEAFKVFDRDGNGYVTVDDLRKVLNELGDMMPADEIEEMIYEADPQNSGYVQYETFVGMLFL [Y24D] yields folding stability dG of 4.63

So for TKAQVIEAFKVFDRDGEGYVTVDYLRKVLNELGDMMPADEIEEMIYEADPQNSGYVQYETFVGMLFL [N17E] , the logged folding stability dG turned out to be 3.08
